TESTED SYSTEM: T1, human CCR8 (human, UniProt P51685 1-355)
T1 construct: Native CCR8 on human PBMC (CCR8+ CD3+ or CCR8+ CD4+ lymphocytes); also called chemokine (C-C motif) receptor 8
T1 sequence (P51685 whole entry): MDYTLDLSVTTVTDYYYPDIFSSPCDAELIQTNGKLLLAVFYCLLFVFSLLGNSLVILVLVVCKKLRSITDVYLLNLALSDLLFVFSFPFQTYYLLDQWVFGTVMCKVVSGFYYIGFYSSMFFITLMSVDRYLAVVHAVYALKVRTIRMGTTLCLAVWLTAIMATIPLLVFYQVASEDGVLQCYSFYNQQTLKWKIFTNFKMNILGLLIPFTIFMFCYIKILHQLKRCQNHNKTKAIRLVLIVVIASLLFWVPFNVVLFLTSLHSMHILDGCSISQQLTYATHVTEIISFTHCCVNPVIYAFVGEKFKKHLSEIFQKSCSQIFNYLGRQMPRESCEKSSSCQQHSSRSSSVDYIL
PROTOCOL: flow blocking, PBMC CCR8+CD3+; competitor PE-AB10
Known % Blocking of a selection of binders

{"columns": ["BINDER", "% Blocking / %"],
 "data": [
  ["AB8 (antibody, V domains shown, Hybridoma monoclonal; also called antibody 8; clone 8) VH: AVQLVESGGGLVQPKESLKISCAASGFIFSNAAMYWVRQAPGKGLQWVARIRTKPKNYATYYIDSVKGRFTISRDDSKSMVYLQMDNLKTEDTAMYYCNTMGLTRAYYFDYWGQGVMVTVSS VL: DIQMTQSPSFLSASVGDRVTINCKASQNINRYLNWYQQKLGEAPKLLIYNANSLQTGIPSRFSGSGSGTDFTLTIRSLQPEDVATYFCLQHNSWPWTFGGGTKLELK", 23.7],
  ["AB10 (antibody, V domains shown, Hybridoma monoclonal; also called antibody 10; clone 10) VH: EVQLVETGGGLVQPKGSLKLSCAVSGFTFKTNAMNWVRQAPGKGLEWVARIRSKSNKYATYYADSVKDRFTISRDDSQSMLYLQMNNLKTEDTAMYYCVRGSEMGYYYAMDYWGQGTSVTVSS VL: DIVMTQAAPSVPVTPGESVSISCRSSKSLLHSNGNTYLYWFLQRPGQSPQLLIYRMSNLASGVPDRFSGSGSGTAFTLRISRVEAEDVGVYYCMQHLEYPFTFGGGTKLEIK", 30.7],
  ["AB6 (antibody, V domains shown, Hybridoma monoclonal; Same VH/VL entries as AB5; also called antibody 6; clone 6) VH: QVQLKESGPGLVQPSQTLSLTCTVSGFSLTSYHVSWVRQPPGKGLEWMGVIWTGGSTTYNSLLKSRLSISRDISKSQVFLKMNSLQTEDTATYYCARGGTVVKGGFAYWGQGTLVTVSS VL: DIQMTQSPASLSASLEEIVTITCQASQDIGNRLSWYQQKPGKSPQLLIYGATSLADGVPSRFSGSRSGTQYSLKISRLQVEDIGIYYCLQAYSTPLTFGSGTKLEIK", -11.6],
  ["AB7 (antibody, V domains shown, Hybridoma monoclonal; also called antibody 7; clone 7) VH: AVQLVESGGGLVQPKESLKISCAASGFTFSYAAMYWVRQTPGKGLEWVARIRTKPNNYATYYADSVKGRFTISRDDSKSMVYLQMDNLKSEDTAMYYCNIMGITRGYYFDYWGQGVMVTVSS VL: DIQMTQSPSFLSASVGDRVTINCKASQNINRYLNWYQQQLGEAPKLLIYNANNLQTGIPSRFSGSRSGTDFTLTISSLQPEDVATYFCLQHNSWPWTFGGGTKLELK", 12.2],
  ["AB11 (antibody, V domains shown, Hybridoma monoclonal; also called antibody 11; clone 11) VH: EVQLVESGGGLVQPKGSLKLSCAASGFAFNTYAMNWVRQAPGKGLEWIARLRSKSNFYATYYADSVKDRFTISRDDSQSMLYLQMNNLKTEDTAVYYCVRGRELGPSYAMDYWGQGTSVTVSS VL: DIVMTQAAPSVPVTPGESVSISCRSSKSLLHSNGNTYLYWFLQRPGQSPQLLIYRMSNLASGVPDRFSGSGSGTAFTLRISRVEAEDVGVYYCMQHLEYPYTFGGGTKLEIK", 34.4],
  ["AB13 (antibody, V domains shown, Hybridoma monoclonal; also called antibody 13; clone 13) VH: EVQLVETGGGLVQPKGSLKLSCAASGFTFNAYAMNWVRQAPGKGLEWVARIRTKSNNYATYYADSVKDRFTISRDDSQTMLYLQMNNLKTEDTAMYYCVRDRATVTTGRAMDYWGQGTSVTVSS VL: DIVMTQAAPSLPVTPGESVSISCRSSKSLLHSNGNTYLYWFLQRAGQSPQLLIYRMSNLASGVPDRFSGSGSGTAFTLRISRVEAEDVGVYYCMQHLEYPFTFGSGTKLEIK", 8.91],
  ["AB5 (antibody, V domains shown, Hybridoma monoclonal; Same VH/VL entries as AB6; also called antibody 5; clone 5) VH: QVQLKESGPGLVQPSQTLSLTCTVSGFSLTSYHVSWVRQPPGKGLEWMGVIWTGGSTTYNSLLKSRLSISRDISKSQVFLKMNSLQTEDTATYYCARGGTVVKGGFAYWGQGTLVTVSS VL: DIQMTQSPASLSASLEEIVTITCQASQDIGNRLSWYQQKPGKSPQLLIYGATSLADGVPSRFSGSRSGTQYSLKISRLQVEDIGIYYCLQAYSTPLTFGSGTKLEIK", -20.7]
]}
